target: Human TLR8 (Homo sapiens, UniProt Q9NR97); construct: host or cells: HEK-293 stably expressing human TLR8, then transfected with pNiFty2(NF-kappaB)-luciferase; experiment: HEK-293 NF-kappaB luciferase reporter assay, CL097 stimulus; type: cell-based; settings: human TLR8 in the HEK-293 assay format; read-out: HEK/TLR8 IC50
Sequence (Q9NR97 27-1041): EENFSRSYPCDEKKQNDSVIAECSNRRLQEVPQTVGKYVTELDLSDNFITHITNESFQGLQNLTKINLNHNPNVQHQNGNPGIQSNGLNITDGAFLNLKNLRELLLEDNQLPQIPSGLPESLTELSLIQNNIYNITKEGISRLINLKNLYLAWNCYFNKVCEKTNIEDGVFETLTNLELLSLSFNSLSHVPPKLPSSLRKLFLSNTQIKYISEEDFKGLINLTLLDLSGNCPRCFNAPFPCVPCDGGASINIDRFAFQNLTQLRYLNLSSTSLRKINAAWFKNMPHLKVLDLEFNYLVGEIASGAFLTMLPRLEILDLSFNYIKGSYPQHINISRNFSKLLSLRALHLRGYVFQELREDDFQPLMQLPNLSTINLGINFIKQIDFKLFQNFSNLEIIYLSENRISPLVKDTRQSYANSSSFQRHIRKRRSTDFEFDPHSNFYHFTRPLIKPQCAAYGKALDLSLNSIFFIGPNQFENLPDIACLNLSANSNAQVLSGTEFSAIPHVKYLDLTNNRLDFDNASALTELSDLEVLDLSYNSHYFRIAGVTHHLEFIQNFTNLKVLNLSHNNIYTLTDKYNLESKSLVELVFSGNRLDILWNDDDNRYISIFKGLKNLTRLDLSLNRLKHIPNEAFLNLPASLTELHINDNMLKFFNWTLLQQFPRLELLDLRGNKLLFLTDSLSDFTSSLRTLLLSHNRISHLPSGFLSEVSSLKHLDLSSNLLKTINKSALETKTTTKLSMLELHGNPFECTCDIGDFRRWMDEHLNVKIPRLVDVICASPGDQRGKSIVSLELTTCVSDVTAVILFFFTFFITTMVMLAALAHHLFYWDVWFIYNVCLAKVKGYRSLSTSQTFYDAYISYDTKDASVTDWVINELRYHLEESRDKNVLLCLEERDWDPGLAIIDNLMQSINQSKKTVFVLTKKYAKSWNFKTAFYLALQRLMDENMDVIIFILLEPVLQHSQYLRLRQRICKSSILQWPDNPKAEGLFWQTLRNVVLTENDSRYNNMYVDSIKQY
measurement-type: IC50 (nM)
Respond with the bare value in nM.

Which IC50 reading was recorded for the compound COc1ccc([C@@H]2C[C@H](C(F)(F)F)n3nc(-c4ccncc4)cc3N2)cc1OC [ER-885454] ?
280

// query: Cc1nn(C)cc1[C@@H]1C[C@H](C(F)(F)F)n2nc(-c3ccc(NC(N)=O)cc3)cc2N1 [ER-894595]
320

Follow-up item: Cc1nn(C)cc1C1CC(C(F)(F)F)n2nc(-c3ccc4c(cnn4C)c3C)cc2N1 (stereo not shown) [ER-892900]
330

Same read-out for COc1ccc([C@H]2C[C@@H](C(F)(F)F)n3nc(-c4ccc(C(=O)N5CCNCC5)cc4)cc3N2)cc1OC [ER-892924] ?
220

Same question, Cc1nn(C)cc1[C@H]1C[C@@H](C(F)(F)F)n2nc(-c3ccc(NC(N)=O)cc3)cc2N1 [ER-894596] this time
540

Queued: Cc1nn(C)cc1[C@H]1C[C@@H](C(F)(F)F)n2nc(-c3ccc4c(cnn4C)c3C)cc2N1 [ER-893987]
220

Moving on to the next compound: COc1cc(-c2cc3n(n2)C(C(F)(F)F)CC(c2ccc(OC)c(OC)c2)N3)ccn1 (racemic) [ER-886434]
300
